System: EKVX NSCLC
Assay: NCI-60 one-dose screen, 48 h
Conditions: 10 µM unless noted
About 83,000 compounds went through this panel and 20% of them were active in at least one assay; those are over-represented in the sample as a whole. The source made the active and inactive calls. Rule for the calls: active = growth percent below 10; inactive = the rest.
Outcome codes: yes (1) for active, no (0) for inactive

>  <compound>
CCCCNc1ccc(C#N)c(OCCN(CC)CC)c1

>  <group>
no (0)

$$$$
>  <compound>
O=C(N/N=C/c1ccc(F)cc1)c1ccc(C(F)(F)F)nc1Nc1cccc(C(F)(F)F)c1

>  <group>
yes (1)

$$$$
>  <compound>
Fc1ccc(-c2nn(-c3ccccc3)cc2-c2nc3ccccc3o2)cc1

>  <group>
no (0)

$$$$
>  <compound>
Nc1ncnc2c1N=C(c1ccc3c(c1)OCO3)CC(c1ccc([N+](=O)[O-])cc1)N2 (stereo not given)

>  <group>
no (0)

$$$$
>  <compound>
COc1ccc(-c2csc(N(C(=O)N3CCN(c4cc5c(cc4F)c(=O)c(C(=O)O)cn5C4CC4)CC3)c3ccccc3)n2)cc1

>  <group>
no (0)

$$$$
>  <compound>
O=[N+]([O-])c1ccc(N/N=C(/C(=N/Nc2ccc([N+](=O)[O-])cc2)c2ccccc2)c2ccccc2)cc1

>  <group>
no (0)

$$$$
>  <compound>
O=C1C(Cl)=C(Nc2ccc(O)cc2)C(=O)N1Cc1ccc(Cl)cc1

>  <group>
no (0)

$$$$
>  <compound>
CN1C(=O)N(C)C2Nn3c(s/c(=C\c4ccc(C(F)(F)F)cc4)c3=O)=NC21 (stereo not given)

>  <group>
no (0)

$$$$
>  <compound>
O=c1oc2ccccc2cc1C1=NN=C(SCc2ccccc2)SC1

>  <group>
no (0)

$$$$
>  <compound>
Cc1nc2ncnc(Cl)c2[nH]1

>  <group>
no (0)

$$$$

---

Tested on: SF-295 CNS
Experiment: NCI-60 one-dose screen, 48 h
Settings: 10 µM unless noted
This is part of a sample that, as a whole, favours compounds with a hit. Of some 83,000 tested, about 20% had one in any assay. The source made the active and inactive calls. How the source made its calls: active means growth percent below 10; inactive means the rest.
Outcome codes: active, inactive

>  <molecule>
COC(=O)c1c2c(c(C)[n+]([O-])c1C)C(=O)C=C(NCc1ccc(OC)cc1)C2=O

>  <group>
active

$$$$
>  <molecule>
COc1ccc(-c2nn(-c3ccccc3)cc2/C=C2/SC(=S)N(C)C2=O)cc1

>  <group>
inactive

$$$$
>  <molecule>
COc1ccc(C(=O)C2C(c3ccc(OC)cc3)CN(C)C23C(=O)Nc2ccccc23)cc1 (stereo not given)

>  <group>
inactive

$$$$
>  <molecule>
C[C@H](NC(=O)[C@@H](C)N)[C@H](Oc1ccc2c(cnn2-c2ccc(F)cc2)c1)c1ccc2c(c1)OCCO2

>  <group>
inactive

$$$$
>  <molecule>
Cc1ccc(S(=O)(=O)N2CCCC2CO)cc1 (stereo not given)

>  <group>
inactive

$$$$
>  <molecule>
C=C1C(=O)O[C@H]2[C@H]1CC/C(COC(=O)NCc1cc[nH]c1)=C\CC[C@@]1(C)O[C@@H]21

>  <group>
inactive

$$$$
>  <molecule>
COc1ccc(-c2nc3c(c(-c4ccccc4)nn3-c3ccccc3)c(-c3ccc(N4CCN(C)CC4)cc3)c2C#N)cc1

>  <group>
inactive

$$$$
>  <molecule>
CCC(=C(c1ccc(OCCN2CCCC2)cc1)c1ccc(OCCN2CCCC2)cc1)c1ccc(Cl)cc1

>  <group>
active

$$$$
>  <molecule>
O=C1c2cccc(NCCN=Cc3cc(O)ccc3O)c2C(=O)c2c(NCCN=Cc3cc(O)ccc3O)cccc21

>  <group>
active

$$$$
>  <molecule>
C1=C(N2CCCC2)CCC1

>  <group>
inactive

$$$$
>  <molecule>
O=C(CCCCC1CCSS1)Nc1ncnc2n[nH]c(-c3ccc(Oc4ccccc4)cc3)c12 (stereo not given)

>  <group>
inactive

$$$$
>  <molecule>
O=C(CSc1nc2ccc([N+](=O)[O-])cc2[nH]1)Nc1ccc(F)cc1

>  <group>
inactive

$$$$
>  <molecule>
Cc1c(-n2nnc(-c3nc4ccccc4s3)c2N)c(=O)n(-c2ccccc2)n1C

>  <group>
inactive

$$$$
>  <molecule>
Fc1ccc(-c2nn(-c3ccccc3)cc2-c2nc3ccccc3o2)cc1

>  <group>
inactive

$$$$
>  <molecule>
C/C(Nc1ccc(Cl)c(Cl)c1)=C1\CCOC1=O

>  <group>
inactive

$$$$
>  <molecule>
CCCC(=O)NC(c1ccc2c(c1)OCO2)c1ccc2cccnc2c1O (stereo not given)

>  <group>
inactive

$$$$
>  <molecule>
Cc1oc(-c2ccc(Cl)cc2)nc1/C=C/C(=O)c1ccccc1

>  <group>
inactive

$$$$
>  <molecule>
O=C1c2cc(Cl)ccc2S(=O)(=O)c2c(NCCCNCCO)nc3ccccc3c21

>  <group>
inactive

$$$$
>  <molecule>
COc1cc2c(c(OC)c1OC)-c1ccc(OC)c(=O)cc1[C@@H](NC(=O)CCl)CC2

>  <group>
inactive

$$$$
>  <molecule>
COC(C(=O)[C@@H](O)[C@@H](C)O)[C@@H]1Cc2cc3cc(O[C@H]4C[C@@H](O[C@H]5C[C@@H](O)[C@H](O)C(C)O5)[C@H](O)C(C)O4)c(C)c(O)c3c(O)c2C(=O)[C@H]1O[C@H]1C[C@@H](O[C@H]2C[C@@H](O[C@H]3C[C@@H](O)[C@H](OC)C(C)O3)[C@@H](O)C(C)O2)[C@H](O)C(C)O1 (stereo not given in full)

>  <group>
active

$$$$

---

System: MOLT-4 leukemia
Test: NCI-60 one-dose screen, 48 h
Settings: 10 µM unless noted
The panel holds about 83,000 compounds, 20% with a hit somewhere; the sample as a whole holds those more often. Activity calls are given as the source filed them. Rule for the calls: active = growth percent below 10; inactive = the rest.
Outcome codes: active, inactive

>  <compound>
COC(=O)c1cc(-c2ccc(S(C)(=O)=O)cc2)[nH]c1N/N=C/c1c(Cl)cccc1Cl

>  <group>
active

$$$$
>  <compound>
COc1cc2c(c(OC)c1OC)C(=O)CC(c1cccc(NC(=O)c3ccc(Br)cc3)c1)O2 (stereo not given)

>  <group>
active

$$$$
>  <compound>
CC(=O)Nc1nc2ccc(NS(=O)(=O)c3cccc4c(N(C)C)cccc34)cc2[nH]1

>  <group>
inactive

$$$$
>  <compound>
N#CC1C=CN(CC(N)=O)c2ccc3cccnc3c21 (stereo not given)

>  <group>
inactive

$$$$
>  <compound>
C=CCn1c(SCC(=O)Nc2ccc(C(=O)/C=C/c3cc4cc(OC)ccc4nc3Cl)cc2)nnc1-c1ccc(Br)cc1

>  <group>
inactive

$$$$

---

System: K-562 leukemia
Test: NCI-60 one-dose screen, 48 h
Conditions: 10 µM unless noted
The panel holds about 83,000 compounds, 20% with a hit somewhere; the sample as a whole holds those more often. Calls of active or inactive are those of the source. The calls were made as follows: active = growth percent below 10; inactive = the rest.
Outcome codes: active, inactive

>  <compound_smiles>
C=CCn1c(SCC(=O)NCc2cc(C)c(O)c(C)c2)nc2ccc(Cl)cc2c1=O

>  <group>
inactive

$$$$
>  <compound_smiles>
COc1ccc2c(c1)[n+]([O-])c(C(=O)/C=C/C=C(\Cl)c1cc(OC)c(OC)c(OC)c1)c(C)[n+]2[O-]

>  <group>
inactive

$$$$
>  <compound_smiles>
CCCCC(=O)c1ccco1

>  <group>
inactive

$$$$
>  <compound_smiles>
COCCn1c(-c2csc(-c3cn(C)c4ccc(OC)cc34)n2)cc2cccnc21

>  <group>
active

$$$$
>  <compound_smiles>
CCCCCCNC(=O)Oc1ccc(/C(=C(/C)Cc2ccc(OC)cc2)c2ccc(OCCCN(C)C)cc2)cc1

>  <group>
active

$$$$
>  <compound_smiles>
CCNC(=O)c1[nH]cc(-c2ccccc2)c1-c1cc(OC)c2c(c1OC)OCO2

>  <group>
inactive

$$$$
>  <compound_smiles>
CCOC(=O)c1c(C)nc2c(c1N)CC(=O)N2Cc1cc(F)cc(Cl)c1

>  <group>
inactive

$$$$
>  <compound_smiles>
CCN(CC)CCOc1ccc(-c2c(-c3ccccc3)c(=O)oc3ccccc23)cc1

>  <group>
inactive

$$$$
>  <compound_smiles>
CCn1c(=S)sc2c(Nc3ccc(F)cc3)nc(-c3cccnc3)nc21

>  <group>
inactive

$$$$
>  <compound_smiles>
CN1C(=O)/C(=C/c2ccc(C(=O)Nc3ncc(Cc4ccc(Cl)cc4)s3)cc2)SC1=S

>  <group>
inactive

$$$$

---

System: TK-10 renal
Assay: NCI-60 one-dose screen, 48 h (100 = growth as untreated, 0 = no growth, -100 = all killed)
Settings: 10 µM unless noted
Compounds without any hit were thinned out: in the full panel of roughly 83,000, 20% have a hit.
# note: boundary value 80% maps to NOT MET; growth below it maps to MET

>  <molecule>
CCCCCC(=O)OCC(=O)O[C@@H]1C[C@]2(C(C)C)O[C@@]1(C)[C@@H]1CC[C@@H](C)[C@H]1[C@@H]2OC(=O)/C=C/c1ccccc1

>  <group>
NOT MET

$$$$
>  <molecule>
Clc1ccc(Nc2nnc(COc3ccccc3)c3ccccc23)cc1

>  <group>
MET

$$$$
>  <molecule>
Oc1c(Cl)cc(Cl)c2ccc(Cn3cc(-c4cc(C(F)(F)F)cc(C(F)(F)F)c4)nn3)nc12

>  <group>
NOT MET

$$$$
>  <molecule>
COC(C(=O)[C@@H](O)[C@@H](C)O)[C@@H]1Cc2cc3cc(O[C@H]4C[C@@H](O[C@H]5C[C@@H](O)[C@H](O)C(C)O5)[C@H](O)C(C)O4)c(C)c(O)c3c(O)c2C(=O)[C@H]1O[C@H]1C[C@@H](O[C@H]2C[C@@H](O[C@H]3C[C@@H](O)[C@H](OC)C(C)O3)[C@@H](O)C(C)O2)[C@H](O)C(C)O1 (stereo partly specified)

>  <group>
MET

$$$$
>  <molecule>
CC1(C)CCC(S(=O)(=O)c2ccc3c(c2)/C(=N\O)c2cc(S(=O)(=O)N4CCC(O)(c5cccc(C(F)(F)F)c5)CC4)ccc2-3)CC1

>  <group>
MET

$$$$
>  <molecule>
O=C(/C=C/c1cccs1)c1ccc(Cl)nc1

>  <group>
NOT MET

$$$$
>  <molecule>
Cc1ccc(-c2csc(NC(=O)CN3CCN(c4cc5c(cc4F)c(=O)c(C(=O)O)cn5C4CC4)CC3)n2)cc1

>  <group>
MET

$$$$
>  <molecule>
COc1ccc(/C=C2\C(=O)N=C3N2NC(c2cc(Br)ccc2O)C=C(C)N3c2ccccc2)cc1 (stereo unspecified)

>  <group>
NOT MET

$$$$
>  <molecule>
COC(=O)c1c2c(c[n+]([O-])c1C)C(=O)C(NCc1ccccc1)=CC2=O

>  <group>
MET

$$$$
>  <molecule>
COc1cc(OC)cc(C2=C3CC[C@@H]4[C@H](CC[C@]5(C)C(=O)CC[C@@H]45)C3=CC3C(O)c4cccnc4N4C(=O)COC234)c1 (stereo partly specified)

>  <group>
NOT MET

$$$$
>  <molecule>
CCN(CC)CCOc1ccc(C(=C(C)c2ccc(Cl)cc2)c2ccc(OCCN(CC)CC)cc2)cc1

>  <group>
MET

$$$$
>  <molecule>
Fc1ccc2[nH]cc(-c3nonc3-c3c[nH]c4ccc(Br)cc34)c2c1

>  <group>
MET

$$$$
>  <molecule>
O=[N+]([O-])c1ccc(S(=O)(=O)N2CCN(C3=NS(=O)(=O)c4ccccc4N3c3ccccc3)CC2)cc1

>  <group>
NOT MET

$$$$
>  <molecule>
CS(=O)(=O)Nc1cc(-c2ccc3ncnc(Nc4c(Cl)ccc5c4OCO5)c3c2)cnc1Cl

>  <group>
MET

$$$$
>  <molecule>
Cc1ccccc1/C=C1\CN(C(=O)OC(C)(C)C)C/C(=C\c2ccccc2C)C1=O

>  <group>
MET

$$$$
